# Tested on: MV-4-11
# measurementProtocol: Cell growth inhibition assay (CellTiter-Glo), MV-4-11
# Type: cell-based, human
# conditionInfo: MV-4-11 cells, 4 days, total growth inhibition

| compound | MV-4-11 TGI |
| --- | --- |
| COc1ncc(-c2cc3c(n2C)[C@@H](c2ccc(Cl)cc2)N(c2cc(C)c(=O)n(C)c2)C3=O)cn1 | 0.0445 µM |
| Cn1ccc2c1C(c1ccc(Cl)c(F)c1)N(c1cc(Cl)c(=O)n(C)c1)C2=O (stereo not shown) | 0.4075 µM |
| Cn1c(-c2ccc(=O)n(C)c2)cc2c1C(c1ccc(Cl)cc1)N(c1cc(Cl)c(=O)n(C)c1)C2=O (stereo not shown) | 0.348 µM |
| Cc1cc(N2C(=O)c3c(C(N)=O)cn(C)c3C2c2ccc(Cl)cc2)cn2c(C)nnc12 (stereo not shown) | 0.1605 µM |
